meta.source: ChEMBL document CHEMBL1137582

# study target: D(2) dopamine receptor (Homo sapiens, UniProt P14416)
# Sequence (P14416 whole entry): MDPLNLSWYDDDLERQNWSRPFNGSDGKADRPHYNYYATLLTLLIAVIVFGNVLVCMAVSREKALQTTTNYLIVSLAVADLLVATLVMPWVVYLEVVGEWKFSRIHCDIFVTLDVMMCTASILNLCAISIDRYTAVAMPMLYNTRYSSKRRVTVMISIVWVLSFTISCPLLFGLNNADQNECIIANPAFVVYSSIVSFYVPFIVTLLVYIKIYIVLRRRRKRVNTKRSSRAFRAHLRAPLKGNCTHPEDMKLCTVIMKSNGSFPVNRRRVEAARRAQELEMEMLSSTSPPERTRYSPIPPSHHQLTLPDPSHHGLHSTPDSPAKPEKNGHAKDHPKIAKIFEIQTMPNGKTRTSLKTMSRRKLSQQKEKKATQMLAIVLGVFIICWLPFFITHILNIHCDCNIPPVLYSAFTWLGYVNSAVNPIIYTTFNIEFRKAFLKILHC
# assay text: Inhibition of D2(L)
test readout: IC50

Entry under review: "Cc1nc(N2CCCC2)nc2ccc(NC(=O)COc3ccc(Cl)cc3)cc12" . Reported IC50?
> 100 µM

* * *

Reported IC50 is given for each of the following compounds.
# study target: Melanin-concentrating hormone receptor 1 (Homo sapiens)
# assay text: Inhibition of MCH-mediated calcium influx into MCH-R1 expressing cells
# Format: functional

Use these answered entries as a reference point.
smiles notation: COc1ccc(OCC(=O)Nc2ccc3nc(N4CCCC4)nc(C)c3c2)cc1
IC50: 41 nM
//
smiles notation: Cc1nc(N2CCCC2)nc2ccc(NC(=O)COc3ccc(C(F)(F)F)cc3)cc12
IC50: 100 nM
//
smiles notation: Cc1nc(N2CCCC2)nc2ccc(NC(=O)COc3ccc(Cl)cc3)cc12
IC50: 58 nM

Let's switch to this compound now.
Entry under review: "O=C(COc1ccc(C(F)(F)F)cc1)Nc1ccc2nc(N3CCCC3)[nH]c2c1" . Reported IC50?
9 nM

* * *

Reported IC50 is given for each of the following compounds.
# study target: Melanin-concentrating hormone receptor 1 (Homo sapiens, UniProt Q99705)
# Sequence (Q99705 whole entry): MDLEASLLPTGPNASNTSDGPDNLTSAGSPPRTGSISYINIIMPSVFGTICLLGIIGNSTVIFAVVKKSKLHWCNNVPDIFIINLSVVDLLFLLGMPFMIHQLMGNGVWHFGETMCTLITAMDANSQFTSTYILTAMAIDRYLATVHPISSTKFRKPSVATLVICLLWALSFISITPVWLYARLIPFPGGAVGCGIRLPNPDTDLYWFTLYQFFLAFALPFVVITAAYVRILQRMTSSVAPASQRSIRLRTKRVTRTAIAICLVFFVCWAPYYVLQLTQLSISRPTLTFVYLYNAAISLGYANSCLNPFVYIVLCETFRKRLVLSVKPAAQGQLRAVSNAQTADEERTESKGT
# assay text: Displacement of 125I-[Phe13,Tyr19]-MCH from MCH-R1 expressing cell membranes
Lab book: enter the figure in µM, no units written.

smiles notation: CC(C)Nc1nc2ccc(NC(=O)COc3ccc(C(F)(F)F)cc3)cc2n1C
study target: Melanin-concentrating hormone receptor 1 (Homo sapiens, UniProt Q99705)
assay result: 0.07

smiles notation: Cc1cc(N2CCCC2)nc2ccc(NC(=O)COc3ccc(C(F)(F)F)cc3)cc12
study target: Melanin-concentrating hormone receptor 1 (Homo sapiens, UniProt Q99705)
assay result: 0.015

smiles notation: Cn1c(N2CCCC2)nc2ccc(NC(=O)COc3ccc(C(F)(F)F)cc3)cc21
study target: Melanin-concentrating hormone receptor 1 (Homo sapiens, UniProt Q99705)
assay result: 0.04

smiles notation: COc1ccc(OCC(=O)Nc2ccc3nc(N4CCCC4)nc(C)c3c2)cc1
study target: Melanin-concentrating hormone receptor 1 (Homo sapiens, UniProt Q99705)
assay result: 0.39

smiles notation: CN(C)CCN(C)c1nc2ccc(NC(=O)COc3ccc(C(F)(F)F)cc3)cc2n1C
study target: Melanin-concentrating hormone receptor 1 (Homo sapiens, UniProt Q99705)
assay result: 0.025

smiles notation: Cc1nc(N2CCCC2)nc2ccc(NC(=O)COc3ccc(C(F)(F)F)cc3)cc12
study target: Melanin-concentrating hormone receptor 1 (Homo sapiens, UniProt Q99705)
assay result: 0.165

smiles notation: Cc1nc(N(C)CCN(C)C)nc2ccc(NC(=O)COc3ccc(C(F)(F)F)cc3)cc12
study target: Melanin-concentrating hormone receptor 1 (Homo sapiens, UniProt Q99705)
assay result: 0.26

smiles notation: Cc1nc(N2CCCC2)nc2ccc(NC(=O)COc3ccccc3Cl)cc12
study target: Melanin-concentrating hormone receptor 1 (Homo sapiens, UniProt Q99705)
assay result: 1.93

API: value(readout=IC50, system=Melanin-concentrating hormone receptor 1 (Homo sapiens, UniProt Q99705)) for record "O=C(COc1ccc(Cl)cc1)Nc1ccc2nc(N3CCOCC3)ccc2c1"
0.961

API: value(readout=IC50, system=Melanin-concentrating hormone receptor 1 (Homo sapiens, UniProt Q99705)) for record "O=C(COc1ccc(C(F)(F)F)cc1)Nc1ccc2nc(N3CCOCC3)ccc2c1"
0.172

API: value(readout=IC50, system=Melanin-concentrating hormone receptor 1 (Homo sapiens, UniProt Q99705)) for record "O=C(COc1ccc(C(F)(F)F)cc1)Nc1ccc2nc(N3CCCC3)[nH]c2c1"
0.035

API: value(readout=IC50, system=Melanin-concentrating hormone receptor 1 (Homo sapiens, UniProt Q99705)) for record "Cc1nc(N2CCCC2)nc2ccc(NC(=O)COc3ccc(Cl)cc3)cc12"
0.25

* * *

# study target: 5-hydroxytryptamine receptor 2B (Homo sapiens, UniProt P41595)
# Sequence (P41595 whole entry): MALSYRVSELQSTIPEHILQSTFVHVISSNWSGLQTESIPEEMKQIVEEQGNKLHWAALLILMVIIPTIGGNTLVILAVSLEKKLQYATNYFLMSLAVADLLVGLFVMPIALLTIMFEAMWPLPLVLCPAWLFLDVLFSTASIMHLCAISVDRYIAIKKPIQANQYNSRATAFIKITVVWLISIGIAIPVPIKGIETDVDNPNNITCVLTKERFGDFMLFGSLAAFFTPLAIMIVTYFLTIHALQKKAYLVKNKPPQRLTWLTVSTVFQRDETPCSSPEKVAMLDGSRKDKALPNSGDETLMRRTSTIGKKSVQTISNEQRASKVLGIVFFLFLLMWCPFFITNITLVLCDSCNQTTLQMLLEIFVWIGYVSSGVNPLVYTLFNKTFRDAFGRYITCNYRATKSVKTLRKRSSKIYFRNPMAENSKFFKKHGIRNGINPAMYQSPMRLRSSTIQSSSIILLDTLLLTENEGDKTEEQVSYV
test readout: pIC50
For clarity, pIC50 is expressed as the negative log10 of concentration in mol/L.

Entry under review: "CN(C)CCN(C)c1nc2ccc(NC(=O)COc3ccc(C(F)(F)F)cc3)cc2n1C" . Reported pIC50?
5.82

* * *

# assay text: Solubility at pH7.4
# Assay type: physicochemical
# experimental setup: buffer, pH 7.4
test readout: solubility

Entry under review: "CN(C)CCN(C)c1nc2ccc(NC(=O)COc3ccc(C(F)(F)F)cc3)cc2n1C" . Reported solubility?
> 1000 µg/mL

* * *

# study target: Melanin-concentrating hormone receptor 1 (Homo sapiens)
# assay text: Inhibition of MCH-mediated calcium influx into MCH-R1 expressing cells
# Type: functional
test readout: pIC50
For clarity, pIC50 is expressed as the negative log10 of concentration in mol/L.

Use these answered entries as a reference point.
smiles notation: CC(C)Nc1nc2ccc(NC(=O)COc3ccc(C(F)(F)F)cc3)cc2n1C
test readout: pIC50
assay result: 7.00

smiles notation: Cc1nc(N(C)CCN(C)C)nc2ccc(NC(=O)COc3ccc(C(F)(F)F)cc3)cc12
test readout: pIC50
assay result: 6.79

smiles notation: CN(C)CCN(C)c1nc2ccc(NC(=O)COc3ccc(C(F)(F)F)cc3)cc2n1C
test readout: pIC50
assay result: 7.55

Entry under review: "Cn1c(N2CCCC2)nc2ccc(NC(=O)COc3ccc(C(F)(F)F)cc3)cc21" . Reported pIC50?
8.05
